Quick reference: % activity (binding) of the listed items.
Target: T1, human NMUR2 (human, UniProt Q9GZQ4 1-415)
T1 construct: whole, on cells; Stably expressed in cells (FLIPR); also called hNMUR2; human R2
T1 sequence (Q9GZQ4 whole entry): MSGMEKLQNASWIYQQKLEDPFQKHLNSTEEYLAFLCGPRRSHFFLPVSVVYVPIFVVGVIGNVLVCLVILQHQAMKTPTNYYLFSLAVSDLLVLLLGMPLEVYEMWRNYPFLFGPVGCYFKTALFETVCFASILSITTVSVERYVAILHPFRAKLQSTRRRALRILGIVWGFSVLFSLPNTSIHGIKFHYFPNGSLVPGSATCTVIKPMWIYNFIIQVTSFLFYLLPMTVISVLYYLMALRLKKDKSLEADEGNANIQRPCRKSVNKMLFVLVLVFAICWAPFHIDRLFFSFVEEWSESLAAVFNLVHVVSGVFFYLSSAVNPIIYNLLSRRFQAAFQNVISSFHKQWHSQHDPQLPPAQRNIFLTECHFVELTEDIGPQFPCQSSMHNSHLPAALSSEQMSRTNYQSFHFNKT
Test: 125I-hNMU-25 displacement, HEK cell membranes
Non-standard residues stand in square brackets, D forms with d. No end group written: not given here. hArg = N=C(N)NCCCC[C@H](N)C(=O)O
Express the result in % but write the number alone.

Binder	% activity (binding), %
FWLFRARN-NH2 [neuromedin U receptor agonist L]	100

INPUT: I would be grateful if you could share the reported % activity (binding) for YF[dA]WRPRN-NH2 (N-terminus assumed; SMILES C[C@@H](NC(=O)[C@H](Cc1ccccc1)NC(=O)[C@@H](N)Cc1ccc(O)cc1)C(=O)N[C@@H](Cc1c[nH]c2ccccc12)C(=O)N[C@@H](CCCNC(=N)N)C(=O)N1CCC[C@H]1C(=O)N[C@@H](CCCNC(=N)N)C(=O)N[C@@H](CC(N)=O)C(N)=O) [neuromedin U receptor agonist D] .
OUTPUT: 0

INPUT: I would be grateful if you could share the reported % activity (binding) for Ac-F[dL]WRPRN-NH2 (SMILES CC(=O)N[C@@H](Cc1ccccc1)C(=O)N[C@H](CC(C)C)C(=O)N[C@@H](Cc1c[nH]c2ccccc12)C(=O)N[C@@H](CCCNC(=N)N)C(=O)N1CCC[C@H]1C(=O)N[C@@H](CCCNC(=N)N)C(=O)N[C@@H](CC(N)=O)C(N)=O) [neuromedin U receptor agonist E] .
OUTPUT: 5

INPUT: I would be grateful if you could share the reported % activity (binding) for FWLFRA[hArg]N-NH2 (N-terminus assumed; SMILES CC(C)C[C@H](NC(=O)[C@H](Cc1c[nH]c2ccccc12)NC(=O)[C@@H](N)Cc1ccccc1)C(=O)N[C@@H](Cc1ccccc1)C(=O)N[C@@H](CCCNC(=N)N)C(=O)N[C@@H](C)C(=O)N[C@@H](CCCCNC(=N)N)C(=O)N[C@@H](CC(N)=O)C(N)=O) [neuromedin U receptor agonist J] .
OUTPUT: 63
